# Tested Target: UniProt P09917
# Sequence (P09917 whole entry): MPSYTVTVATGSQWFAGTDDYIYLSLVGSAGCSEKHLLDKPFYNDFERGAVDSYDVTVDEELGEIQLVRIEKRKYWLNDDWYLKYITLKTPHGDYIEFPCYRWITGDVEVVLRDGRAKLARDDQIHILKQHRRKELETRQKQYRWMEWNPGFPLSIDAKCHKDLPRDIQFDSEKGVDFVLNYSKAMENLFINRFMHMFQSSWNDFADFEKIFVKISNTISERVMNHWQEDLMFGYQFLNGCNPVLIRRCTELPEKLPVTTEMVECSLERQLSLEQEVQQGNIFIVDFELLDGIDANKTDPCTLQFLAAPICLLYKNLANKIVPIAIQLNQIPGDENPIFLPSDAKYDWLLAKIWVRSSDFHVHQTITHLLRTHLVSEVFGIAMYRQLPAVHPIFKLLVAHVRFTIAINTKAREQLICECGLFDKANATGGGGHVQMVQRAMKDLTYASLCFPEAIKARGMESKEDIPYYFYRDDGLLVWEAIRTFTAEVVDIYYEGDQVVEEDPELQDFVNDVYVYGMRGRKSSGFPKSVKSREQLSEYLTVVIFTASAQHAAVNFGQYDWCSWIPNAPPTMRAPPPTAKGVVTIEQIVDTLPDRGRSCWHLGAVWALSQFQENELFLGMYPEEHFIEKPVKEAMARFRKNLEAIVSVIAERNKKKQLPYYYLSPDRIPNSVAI
# Protocol Details: 5-LO product formation in activated PMNL
# Assay type: cell-based
# Parameters: Freshly isolated PMNL (1 × 10^7); endogenous in cells; host or cells: human PMNL freshly isolated from leukocyte concentrates
# Measurement Setup: cell-based; mean ± s.e.m., n = 3; read-out: IC50, activated PMNL (5-LO)
pIC50: −log10 of the molar value.
Readout Label: pIC50

Compound | pIC50
CC(C)=CCC/C(C)=C/CC/C(C)=C/CC[C@]1(C)CCc2c(C)c(O)c(C)c(C)c2O1 [1e] | 3.56
Cc1cc(O)cc2c1O[C@](C)(CCC[C@H](C)CCC[C@H](C)CCCC(C)C)CC2 [1d] | 4.07
CC(C)=CCC/C(C)=C/CC/C(C)=C/CC[C@]1(C)CCc2c(C)c(O)cc(C)c2O1 [1f] | 4.02
Cc1cc(O)cc2c1O[C@](C)(CCC[C@H](C)CCC[C@H](C)CCCC(C)CO)CC2 (some centres unmarked) [2d] | 6.27

1. Cc1c(C)c2c(c(C)c1O)CC[C@@](C)(CCCC(C)CCCC(C)CCCC(C)CO)O2 (some centres unmarked) [2a]
2. C/C(=C\CC/C(C)=C/CC/C(C)=C/CC[C@]1(C)CCc2cc(O)cc(C)c2O1)CO [2h]
3. Cc1c(O)cc2c(c1C)O[C@](C)(CCC[C@H](C)CCC[C@H](C)CCCC(C)C)CC2 [1c]
Prompt: Arrange the 3 entries by pIC50 so the values rise. Sort the labels as requested; that list is your answer.
Response: 3, 2, 1

a. C/C(=C/CC/C(C)=C/CC/C(C)=C/CC[C@]1(C)CCc2cc(O)c(C)c(C)c2O1)CO [3g]
b. C/C(=C\CC/C(C)=C/CC/C(C)=C/CC[C@]1(C)CCc2c(C)c(O)cc(C)c2O1)CO [2f]
Prompt: Param metric = pIC50; output whichever of a , b has the minimum value. Please respond with the label that marks your chosen entry.
Response: b

###

# Tested Target: human recombinant soluble epoxide hydrolase (sEH) (Homo sapiens)
# Sequence (P34913 whole entry): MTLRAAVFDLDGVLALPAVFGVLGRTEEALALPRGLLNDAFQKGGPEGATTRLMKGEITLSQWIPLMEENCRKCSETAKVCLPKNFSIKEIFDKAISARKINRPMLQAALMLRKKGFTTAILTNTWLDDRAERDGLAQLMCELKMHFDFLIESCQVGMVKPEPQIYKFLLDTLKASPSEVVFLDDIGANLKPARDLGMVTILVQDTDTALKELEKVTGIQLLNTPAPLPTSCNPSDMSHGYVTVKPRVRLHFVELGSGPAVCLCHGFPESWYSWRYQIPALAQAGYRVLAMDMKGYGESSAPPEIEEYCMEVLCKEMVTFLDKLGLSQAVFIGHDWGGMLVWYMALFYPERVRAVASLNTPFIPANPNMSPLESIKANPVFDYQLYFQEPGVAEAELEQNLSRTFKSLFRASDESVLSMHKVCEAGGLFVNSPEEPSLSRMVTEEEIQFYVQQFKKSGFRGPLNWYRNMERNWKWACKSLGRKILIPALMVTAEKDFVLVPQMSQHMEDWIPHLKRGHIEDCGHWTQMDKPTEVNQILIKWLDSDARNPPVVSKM
# Protocol Details: sEH activity
pIC50: −log10 of the molar value.
Readout Label: pIC50

Prompt: Look at this compound and give its reported pIC50. Cc1c(C)c2c(c(C)c1O)CC[C@@](C)(CCCC(C)CCCC(C)CCCC(C)C(=O)O)O2 (stereo partly shown)
Response: < 5.00

###

# Tested Target: human recombinant LTC4 synthase (LTC4S) (Homo sapiens)
# Sequence (Q16873 1-150): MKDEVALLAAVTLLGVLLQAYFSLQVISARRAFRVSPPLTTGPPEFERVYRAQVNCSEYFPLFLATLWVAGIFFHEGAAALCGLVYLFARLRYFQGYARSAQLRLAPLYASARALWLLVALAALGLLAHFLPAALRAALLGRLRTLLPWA
# Protocol Details: LTC4 synthase activity
Readout Label: IC50 (µM)
The response must be a number in µM with no trailing unit.

Prompt: Any idea what IC50 was measured for Cc1c(C)c2c(c(C)c1O)CC[C@@](C)(CCCC(C)CCCC(C)CCCC(C)C(=O)O)O2 (stereo partly shown) ?
Response: 9.9

###

# Tested Target: 12-LO (Homo sapiens)
# Construct: 12-HETE (12-LO product from platelets in PMNL preparations); endogenous in cells; host or cells: platelets contaminating human PMNL preparations
# Sequence (P18054 whole entry): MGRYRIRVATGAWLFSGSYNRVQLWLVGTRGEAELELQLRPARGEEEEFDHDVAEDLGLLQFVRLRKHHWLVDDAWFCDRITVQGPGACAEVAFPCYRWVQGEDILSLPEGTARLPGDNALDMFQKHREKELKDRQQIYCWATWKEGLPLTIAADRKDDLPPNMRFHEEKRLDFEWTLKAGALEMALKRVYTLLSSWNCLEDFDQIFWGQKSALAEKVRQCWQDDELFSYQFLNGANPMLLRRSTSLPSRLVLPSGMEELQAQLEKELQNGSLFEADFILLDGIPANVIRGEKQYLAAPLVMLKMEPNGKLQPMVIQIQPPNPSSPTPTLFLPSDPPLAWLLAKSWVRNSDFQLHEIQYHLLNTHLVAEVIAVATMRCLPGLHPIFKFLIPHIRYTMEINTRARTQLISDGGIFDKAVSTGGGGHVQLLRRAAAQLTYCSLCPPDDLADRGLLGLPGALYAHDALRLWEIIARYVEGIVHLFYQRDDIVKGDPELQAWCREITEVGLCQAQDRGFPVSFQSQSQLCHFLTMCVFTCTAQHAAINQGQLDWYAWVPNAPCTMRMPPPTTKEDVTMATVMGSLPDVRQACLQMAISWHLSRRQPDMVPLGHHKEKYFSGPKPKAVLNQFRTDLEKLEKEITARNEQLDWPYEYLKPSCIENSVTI
# Protocol Details: 12-LO product formation in A23187/AA-activated PMNL
# Format: cell-based
# Measurement Setup: at 3 µM; mean ± s.e.m., n = 3; n.i. no inhibition
Readout Label: 12-LO product formation/PMNL, residual activity

Worked examples follow.
Compound | Value Measured
Cc1cc(O)cc2c1O[C@](C)(CCC[C@H](C)CCC[C@H](C)CCCC(C)C)CC2 [1d] | n.i.
CC(C)=CCC/C(C)=C/CC/C(C)=C/CC[C@]1(C)CCc2cc(O)cc(C)c2O1 [1h] | 87.6 ± 8.5 % of control
Cc1c(C)c2c(c(C)c1O)CCC(C)(CCC(=O)O)O2 (centres unmarked) [6a] | 87.2 ± 3.6 % of control
C/C(=C\CC/C(C)=C/CC[C@]1(C)CCc2c(C)c(O)c(C)c(C)c2O1)CC/C=C(\C)C(=O)O [4e] | 72.6 ± 13.6 % of control

Turning to the following compound.
Prompt: Name the recorded 12-LO product formation/PMNL, residual activity for C/C(=C\CC/C(C)=C/CC/C(C)=C/CC[C@]1(C)CCc2c(C)c(O)c(C)c(C)c2O1)CO [2e] .
Response: 62.7 ± 15.2 % of control
